# experiment description: yeast display, Sf9 membrane polyspecificity reagent, FACS + sequencing; frameworks hold sequencing errors

biopolymer sequence	polyreactivity (PSR sort gate)
QVHHVESGGGLVQAGGSLRLSCADSGSIFTYYAMGWYRQAPGKERDLVAAINSGGRTNYADSVKGRFTISRDNAKNTVYLQMNSLKPVDTAVYYCANYGVLQYGYWGQGTQVTVSS	low polyreactivity
QVQLVESGGGLVQAGGSLRLSCAASGRTFPAYAMGWYRQAPGKERELVAAISYSGGRTRYADSVKGRFTISRDNAKNTVYLQMNSLKPEDTAVYYCNRVIPTQSLRDYYWGQGTQVTVSS	high polyreactivity
QVQLVESGGGLVQAGGSLRLSCAASGSNIFQYDMGWYRQAPGKERELVAAITISGGSTYYADSVKGRFTISRDNAKNTVYLQLNILKPEDTAVYYCNADYEWYLGGYDYWGQGTQVTVSS	high polyreactivity
QVQLVESGGGLVQAGGSLRLSCAASGSIFTGYSMGWYRQAPGKERELVAAISNSGTSTYYADSVKGRFTISRDNAKNTVYLQMNCLKPDDTAVYYCNRYHRLRVVPSRYVKYDYWGQGTQVTVSS	low polyreactivity
QVQLVESGGGFVQAGVSLRLSCAASGSIYYNAMGWYIQAPGKERELVAGITSSGGSTYYADSVKGRFTISRDNAKNTVYLQMISLKPEDTAVYFCAADFVYLCTLFGAYDYCGQGTQVTVSS	low polyreactivity
QVQIEESGGGLDQAGGSLRLTCAASGFTIPSYTRGWYRQAPGKERELVAAISRSDGTTYYAYSVKGRFTISRDNAKNSVYLQLNSLKPEDTAVYYCNKAYKRYGYHYDYWGQGTQVTVSS	high polyreactivity
QVQLVESGGGLVQAGGSLRLSCAASGGIFGTYTMGWYRQAPGKERELVAAIRSSSGRTYYADSVKGRFTISRDTAKNTVYLQMNSLKPEDTAVYYCNRAYTIQDDYWGQGTQVTVSS	high polyreactivity
QVQSVESCGGLVQAGRSLRLSCAPSGSIFADYAMGWYSQAPGKERELVAVISRRGGTTYYADSVKGRFTISRDNAKNSVYLQMNSLKPEDTAVYYCAARRSFNEYDYWGKGTQVTVSS	high polyreactivity
QVQLVESGGGFVQAGGSLRLSCAASGINVSHYTMGWYRQAPGKERELVAGISRSGGSTYYADSVKGRFTISRDNAKNTVYLQMNSLKPDDTAVYYCAADGYGFVSPRGYNYWGQGTQVTVSS	high polyreactivity
QVQLVESGGGLVQAGGSLRLSCAASGFIFVAYAMGWSRQAPGKERELVAAITSSGGRTYYADSVKGRFTISRDNAKNTVYLQMNSLKPEDTAVYYCAARVYRSAKGYNYWGQGTQVTVSS	high polyreactivity
QVQLVESGGGVVQAGGSLRLSCAASGSTFDVYAMGWYRPAPGKERELVAAITSGGTTNYADSVKGRFTISRDNAQNTVYLQLNSLKPEDTAVYYCAADSPWGGGYFVLYNYWGQGTQVTVSS	low polyreactivity
QVQLVESGGGLVQAGGSLRLSCAASGLIFRYYAKGWYRQAPGKERELFAAISLRGGSTYYADSVKGRFTISRDNAKNNVYLQMNSLKPEDTAVYYCAAQWASFSVANLYGYWGQGTQVTVSS	high polyreactivity
QVQLVESGGGLVQAGGSLRLSCAASGSIFYRNAMGWYRPAPGKERELVAAISSDGSTNYADSVKGRFTISRDNAKNTVYLQMNSLKPEDTAVYYCAVDRYRYPFDYWGQGTQVTVSS	low polyreactivity
QVQLVESGGGLVQAGGSLRLSCAASGSTFYYYAMGWYRQAPGKERELVAAISNRDGRTYYADSVKGRFTISRDNAKNTVYLQMNSLKPEDTAVYYCNAYSYGHYYWGQGTQVTVSS	high polyreactivity
QVQLVESGGGLVQAGGSLRLSCAASGFNFAIYAMGWYRQAPGKERELVAAINSDGSTYYADSLKGLFTISRDNAKNSDYLQINSLKPEDTAVYYCNAETAGHDMDYWGQGTQVTVSS	low polyreactivity
QVQLVESGGGLVQAGGSLRLSCAASGSIFSQYAMGWSRQAPGKERELVAAISSSGDSTNYADSVKGRFTISRDNAKNTVYLQMNSLKPEDTAVYYCAADFDWFIWGYDYWGQGTQVTVSS	low polyreactivity
QVQLVESGGGLVQAGGSLRLSCAASGIILYTYAMGWYRQAPGKEREFVAGIRWSGSSTYYADSVKGRFTISRDNAKNTVYLQMNSLKPEDTAVYYCATGQPYGPLYSLGYGYWGQGTQVTVSS	high polyreactivity
QVQHVETGGGLVQAGGSLRLSCDASGRIFYNYVMGWYRQAPGKERELVAAISFSSGNTYYADSVKGRFTISRDNAKNSVYLQMNSLTPEDTAVYYCNADIYTWFQIGGYQYDYWGQGTQVTVSS	low polyreactivity
QVQLVESGGGLVQAGGSLRLSCAASGRTFYWNAMGWYRQAPGKEREFVAAITNTAGYTYYADSVKGRFTISRDNAKNTVYLQMNSLKPEDTAVYYCAKSGNAGYRTYLRDYWGQGTQVTVSS	low polyreactivity
QVQLVESGGGLVQAGGSLRLSCAASGGTFAFNAMGWYRQAPGKERELVATIRYSGGSTYADSVKGRFTISRDNAKNTVYLQMNSLKPEDTAVYYCAASGYYIFSWRYDYWGQGTQVTVSS	low polyreactivity
QVQLVESGGGLVQAGGSLRLSCAASGSMFYYYAMGWYRQAPGKERELVAAISSAGITNYADSVKGRFTISRDNAKNTVYLQMNSLKPEDTAVSYCAAAVFDIYWFLGEAYYFQYDYWGQGTQVTVSS	high polyreactivity
